Assignment: determine reported Estrogenic potency for the given molecules.
- systemUnderTest: Estrogen receptor (Rattus norvegicus) (UniProt P06211+Q62986)
Simply state the number, no unit and no words.

# molecule `C#C[C@]1(O)CC[C@H]2[C@@H]3CCc4cc(O)ccc4[C@H]3[C@@H](OC)C[C@@]21C` ; its Estrogenic potency = 2000

# molecule `C#C[C@]1(O)CC[C@H]2[C@@H]3[C@H](O)Cc4cc(O)ccc4[C@H]3CC[C@@]21C` ; its Estrogenic potency = 0.3

# molecule COc1ccc2c(c1)CCC1C2CCC2(C)C1C=C[C@@]2(O)c1ccccc1 (stereo partly drawn) ; its Estrogenic potency = 0.14

# molecule `CC[C@H]1CC[C@H]2[C@@H]3CCc4cc(O)ccc4[C@H]3[C@@](C)(O)C[C@]12C` ; its Estrogenic potency = 0.05

# molecule `C=C(C)[C@H]1CC[C@H]2[C@@H]3CCc4cc(O)ccc4[C@H]3CC[C@]12C` ; its Estrogenic potency = 0.08

# molecule `CC[Si](C#C[C@H]1CC[C@H]2[C@@H]3CCc4cc(O)ccc4[C@H]3CC[C@]12C)(CC)CC` ; its Estrogenic potency = 0.04

# molecule `C=C1CC[C@H]2[C@@H]3CCc4cc(O)ccc4[C@H]3CC[C@]12C` ; its Estrogenic potency = 0.5

# molecule `CO/N=C1\CC[C@H]2[C@@H]3CCc4cc(O)ccc4[C@H]3CC[C@]12C` ; its Estrogenic potency = 0.04
